- tested target: T1, Human NOTUM (human, UniProt Q6P988 20-496)
- T1 construct: also called human notum pectinacetylesterase; recombinant human NOTUM
- T1 sequence: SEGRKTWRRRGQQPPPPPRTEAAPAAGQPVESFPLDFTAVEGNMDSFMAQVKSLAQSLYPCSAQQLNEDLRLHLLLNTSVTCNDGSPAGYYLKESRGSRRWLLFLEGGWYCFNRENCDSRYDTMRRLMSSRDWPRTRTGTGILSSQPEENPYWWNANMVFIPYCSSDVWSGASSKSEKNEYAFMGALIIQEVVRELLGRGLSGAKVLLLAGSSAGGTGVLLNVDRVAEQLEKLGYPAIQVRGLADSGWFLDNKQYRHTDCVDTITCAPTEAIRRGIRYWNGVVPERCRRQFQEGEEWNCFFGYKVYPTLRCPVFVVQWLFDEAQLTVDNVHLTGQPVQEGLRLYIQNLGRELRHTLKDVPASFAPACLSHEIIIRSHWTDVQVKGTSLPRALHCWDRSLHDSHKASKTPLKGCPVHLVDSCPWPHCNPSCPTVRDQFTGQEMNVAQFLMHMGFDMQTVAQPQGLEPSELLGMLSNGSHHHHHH
- measurement notes: Biacore 3000
observed property: kon (M⁻¹ s⁻¹)
Dear colleague, please return just the value in M⁻¹ s⁻¹, with no unit written.

Form field kon, entry MAb 1.802 (antibody, V domains shown, Mouse monoclonal antibody from Campaign 1 (raised against human NOTUM), IgG1) VH: EVQLVESGGGLVKPGGSLKLSCAASGFTFSDYGMHWFRQAPEKGLEWVAYISSGSRTVYYADTVKGRFTISRDNAKNTLSLQMTSLRSEDTAMYYCARKHYNGGYFDVWGTGTTVTVSS VL: DIVLTQSPASLAVSLGQRATISCRASKIVSTSGYSYMHWYQQKPGQPPKLLIYLASNLESGVPARFSGSGSGTDFTLNIHPVEEEDAATYYCQHSRELPPTFGSGTKLEIKR : 257000

Noted for MAb 2.78 (antibody, V domains shown, Mouse monoclonal antibody from Campaign 2 (raised against mouse NOTUM), IgG2b) VH: DVQLVESGGGLVQPGGSRKLSCAASGFTFSSFGMHWVRQAPEKGLEWVAYITSGSGAIYYADTVRGRFTISRDTPKNTLFLQMTSLRSEDTAMYYCARSADGLDYWGQGTSVTVSS VL: DIQMTQSPASLYVSVGETVTITCRASENIYSNLAWYQQKQGKSPQLLVYGATNLADGVPSRFSGSGSGTQYSLKINSLKSEDFGSYYCQHFWGTPFTFGSGTKLEIKR : its kon reads 47900

Field kon (entry MAb 2.1029 (antibody, IgG2a, V domains shown, Mouse monoclonal antibody from Campaign 2, IgG2a) VH: QVQLKESGPGLVAPSQSLSITCTVSGFSLTSYGVHWVRQPPGKGLEWLGVIWAGGSTNYNSALMSRLSISKDNSKSQVFLKMNSLQTDDTAIYFCARDGDYGTIYAMDYWGQGTSVTVSS VL: DIQMTQTTSSLSASLGDRVTISCRASQDISNYLNWYQQKPDGTVKLLIYYTSRLHSGVPSRFTGSGSGTDYSLTISNLEQEDIATYFCQQGKTLPRTFGGGTMLEIKR ) reads 151000

For 1.802 Fab (Fab, V domains shown, Fab made by digestion of whole IgG (mouse IgG1) with ficin) VH: EVQLVESGGGLVKPGGSLKLSCAASGFTFSDYGMHWFRQAPEKGLEWVAYISSGSRTVYYADTVKGRFTISRDNAKNTLSLQMTSLRSEDTAMYYCARKHYNGGYFDVWGTGTTVTVSS VL: DIVLTQSPASLAVSLGQRATISCRASKIVSTSGYSYMHWYQQKPGQPPKLLIYLASNLESGVPARFSGSGSGTDFTLNIHPVEEEDAATYYCQHSRELPPTFGSGTKLEIKR the binder record lists kon as 899000
